test protocol: Hematology assays in cynomolgus monkeys (Example 45)
Type: in vivo
experimental context: day 36; escalating dose regimen
Field: hemoglobin. Provide a value for each of the substances that follow.
State the answer as a number, implicitly in g/dL.

Look at this substance and give its reported hemoglobin. ISIS 416858: MOE gapmer, nucleobases 1275 to 1318 of SEQ ID NO: 1 (Table 8) (antisense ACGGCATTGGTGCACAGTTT; MOE gapmer, wing and gap sizes not given here)
12.6

Look at this substance and give its reported hemoglobin. ISIS 417002: MOE gapmer, nucleobases 1275 to 1318 of SEQ ID NO: 1 (Table 8) (antisense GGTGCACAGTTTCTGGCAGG; MOE gapmer, wing and gap sizes not given here)
12.5

====

System: human Factor 11 mRNA
test protocol: Dose-dependent inhibition of human Factor 11 in HepG2 cells, electroporation 123.46-10,000 nM (Example 31)
Assay type: cell-based
experimental context: electroporation, 123.47 nM, approx. 16 hours, relative to untreated control cells
Strand notation (5' to 3'): a small letter for the sugar, then the base; units joined by * are phosphorothioate-linked, units joined directly phosphodiester-linked; [ ] holds rarer units or linkages, { } end groups; capitals alone tell only the bases. e = 2'-O-(2-methoxyethyl) (MOE); [5mC] = 5-methylcytosine; d = 2'-deoxy (DNA)
quantity: Percent inhibition of Factor 11 mRNA at 123.47 nM (%)
State the answer as a number, implicitly in %.

Look at this substance and give its reported Percent inhibition of Factor 11 mRNA at 123.47 nM. 445522 (antisense eG*e[5mC]*eA*e[5mC]*eA*dG*dT*dT*dT*d[5mC]*dT*dG*dG*e[5mC]*eA*eG*eG*e[5mC]) [compound 445522]
0

Look at this substance and give its reported Percent inhibition of Factor 11 mRNA at 123.47 nM. 445503 (antisense eG*e[5mC]*eA*eT*eT*eG*dG*dT*dG*d[5mC]*dA*d[5mC]*dA*dG*eT*eT*eT*e[5mC]*eT*eG) [compound 445503]
0

Look at this substance and give its reported Percent inhibition of Factor 11 mRNA at 123.47 nM. 445498 (antisense eG*eG*eT*eG*e[5mC]*eA*d[5mC]*dA*dG*dT*dT*dT*d[5mC]*dT*eG*eG*e[5mC]*eA*eG*eG) [compound 445498]
3

====

Field: PT ratio (INR). Provide a value for each of the substances that follow.
Test system: blood coagulation
test protocol: PT and aPTT assay in cynomolgus monkeys (Example 45)
Format: in vivo
experimental context: day 22; escalating dose regimen; platelet poor plasma
Please reply with the number alone, leaving off any unit.

Query for blood coagulation: what PT ratio (INR) does the record show for ISIS 416864: MOE gapmer, nucleobases 1275 to 1318 of SEQ ID NO: 1 (Table 8) (antisense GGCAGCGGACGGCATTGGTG; MOE gapmer, wing and gap sizes not given here) ?
1.03

Query for blood coagulation: what PT ratio (INR) does the record show for ISIS 416838: MOE gapmer, nucleobases 1018 to 1042 of SEQ ID NO: 1 (Table 6) (antisense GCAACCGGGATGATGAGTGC; MOE gapmer, wing and gap sizes not given here) ?
1.07

Query for blood coagulation: what PT ratio (INR) does the record show for ISIS 417002: MOE gapmer, nucleobases 1275 to 1318 of SEQ ID NO: 1 (Table 8) (antisense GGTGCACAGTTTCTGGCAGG; MOE gapmer, wing and gap sizes not given here) ?
1.04
